Assay: PSAC antagonists in infected red cells, primary screen, cell-based, P. falciparum Indochina, OD700, 18 h (AID 1157)
Details: P. falciparum Indochina infected erythrocytes, osmotic lysis OD700, 18 h; higher = more signal, called active from +8 up or from −8 down

{"Compound": "CO[C@H]1O[C@H](CO)[C@@H](OC(=O)CCc2ccccc2)[C@H](OC(=O)c2cc3ccccc3[nH]2)[C@H]1OC(=O)c1cc2ccccc2[nH]1", "z-score": 1.1}
{"Compound": "O=C1N(CCS(=O)(=O)c2ccccc2)Cc2ccccc2[C@@H]2OC(c3ccc(OCCCO)cc3)=N[C@]12CCS(=O)(=O)c1ccccc1", "z-score": 2.44}
{"Compound": "COc1ccc(C(=O)Nc2cccc(CN3C(=O)[C@]4(O[C@H](CCn5cc([C@H](O)c6ccccc6)nn5)[C@@H]([Si](C)(C)c5ccc(OC)cc5)[C@@H]4C)c4ccccc43)c2)cc1", "z-score": -0.209}
{"Compound": "CC(CO)N1C(=O)[C@@H]2[C@H]3C(=O)OCC=C[C@H]3OC23C=CCN(c2ccc(Cl)cc2)C(=O)[C@@H]13 (some centres undefined)", "z-score": 0.0119}
{"Compound": "COc1ccc([Si](C)(C)[C@H]2[C@H](CCO)O[C@@]3(C(=O)N(Cc4ccc(N5C(=O)c6ccccc6Oc6ccccc65)cc4)c4ccccc43)[C@@H]2C)cc1", "z-score": 1.38}
{"Compound": "O=C1C2C=CC(C(O)C=Cc3ccc([N+](=O)[O-])cc3)N(Nc3ccccc3)C2C(=O)N1c1ccccc1 (centres undefined)", "z-score": 1.81}
{"Compound": "NCCCCCNC(=O)[C@H]1C[C@H]2C(=O)N[C@@H](Cc3ccccc3)C(=O)N2[C@H]1c1ccc(O)cc1", "z-score": 0.204}
{"Compound": "CCCCCN1CC=CC23O[C@@H]4C=CCOC(=O)[C@@H]4[C@H]2C(=O)N(CCO)[C@@H]3C1=O (some centres undefined)", "z-score": 0.161}
{"Compound": "COc1cccc(/C=C(\\C#N)C(=O)Nc2c(C)n(C)n(-c3ccccc3)c2=O)c1", "z-score": -0.924}
{"Compound": "C=C[C@@H](OC)[C@H](OC(=O)Nc1ccc(SC)cc1)c1ccc(OCCO)cc1", "z-score": 1.78}
{"Compound": "NC(=O)[C@@H]1[C@H]2C(=O)O[C@H](c3ccccc3)[C@H](c3ccccc3)N2[C@H](c2ccc(OCCO)cc2)[C@@]12C(=O)Nc1ccc(C#CCCO)cc12", "z-score": 0.908}
{"Compound": "CC(C)C(=C=CC[C@@H](O)c1cccc(OCCO)c1)C[C@@H](O)COCc1ccccc1", "z-score": -2.05}
{"Compound": "COCCCNC(=O)[C@@]1(Sc2ccc(C)cc2)CC(=O)N(Cc2ccccc2Cl)[C@@H]1c1ccc(CO)cc1I", "z-score": 0.181}
{"Compound": "COCCOC(=O)N1C(=O)[C@@]2(c3cc(C#Cc4ccc(OC)cc4)ccc31)[C@H](C(=O)NC[C@H](O)c1ccccc1)[C@H]1C(=O)O[C@H](c3ccccc3)[C@H](c3ccccc3)N1[C@@H]2c1ccc(OCCO)cc1", "z-score": 0.312}
